The reader will find reported viability at 48 h, 32 nmol values listed item by item below.
assay-text: Cytotoxicity against human Raji cells assessed as cell viability at 32 nmol after 48 hrs by trypan blue assay
Format: cell-based
cond: read-out: Activity
Give the value, in units of %, as a plain number.

Use the examples below as a reference point.
compound: CC(C)=CC[C@@H]1C[C@@]2(CC=C(C)C)C(=O)[C@](CC=C(C)C)(C(=O)C(C(=O)c3ccccc3)=C2O)C1(C)C [CLUSIANONE]
assay-endpoint: viability at 48 h, 32 nmol
recorded-value: 60
//
compound: O=C(c1ccc(O)c(O)c1)c1c(O)cc(O)cc1O [MACLURIN]
assay-endpoint: viability at 48 h, 32 nmol
recorded-value: 70
//
compound: COc1cc(C(=O)C2=C3OC(C)(C)[C@@H](CC=C(C)C)C[C@@]34C[C@@H](CC=C(C)C)C(C)(C)[C@@](CC=C(C)C)(C2=O)C4=O)ccc1O
assay-endpoint: viability at 48 h, 32 nmol
recorded-value: 60
//
compound: C=C(C)[C@@H](CC=C(C)C)C[C@@]12C[C@@H](CC=C(C)C)C(C)(C)[C@@](CC=C(C)C)(C(=O)C(C(=O)c3ccc(O)c(O)c3)=C1O)C2=O [GARCINOL]
assay-endpoint: viability at 48 h, 32 nmol
recorded-value: 60
//
compound: CC(C)=CC[C@H]1C[C@@]23C[C@@H](CC=C(C)C)C(C)(C)[C@@](CC=C(C)C)(C(=O)C(C(=O)c4ccc(O)c(O)c4)=C2OC1(C)C)C3=O [CAMBOGIN]
assay-endpoint: viability at 48 h, 32 nmol
recorded-value: 60

Let's switch to this compound now.
Input: Record request: viability at 48 h, 32 nmol value, item C=C(C)[C@@H](CC=C(C)C)C[C@@]12C[C@@H](CC=C(C)C)C(C)(C)[C@@](CC=C(C)C)(C(=O)C(C(=O)c3ccc(O)c(OC)c3)=C1O)C2=O
Output: 60
